Sourced from patent US20100183625A1

- TARGET_UNDER_TEST: T1, human plasma kallikrein (human, UniProt P03952 20-390; P03952 391-638)
- T1 construct: also called pKal; human pKal
- MEASUREMENT_NOTES: apparent Ki (Ki,app), inhibition of human pKal activity
ASSAY_ENDPOINT: pKi
Expect pKi as a plain number equal to -log10 of the molar concentration.

binder="M7-B04 (antibody, V domains shown) VL: QSALTQPASVSGSPGQSITISCTGTNSDVGNYNLVSWYQQHPGEAPKLLIYEVNKRPSGVSNRFSGSKSGNTASLTISGLQAEDEADYLCCSYAGNRNFYVFGAGTKVTVL VH: EVQLLESGGGLVQPGGSLRLSCAASGFTFSWYSMVWVRQAPGKGLEWVSSISPSGGLTNYADSVKGRFTISRDNSKNTLYLQMNSLRAEDTAVYYCARHTAARPFYYYYMDVWSKSTTVTVSSASTKGPSVFPLAPSSKS" observed_result=7.27

Switching to the query record.
Which pKi value is on record for M29-D09 (antibody, V domains shown) VH: EVQLLESGGGLVQPGGSLRLSCAASGFTFSWYTMVWVRQAPGKGLEWVSYIYPSGGATFYADSVKGRFTISRDNSKNTLYLQMNSLRAEDTAVYYCAMGSYDYIWGFYSDHWGQGTLVTVSS VL: QSALTQPPTVSVSPGQTARITCSGNKLGDKYVAWYQQKPGQSPMLVIYQDTKRPSAIPERFSGSNSANTATLSISGTQALDEADYYCQAWDSSIVIFGGGTRLTVL ?
9.15
